- Target System: UniProt P62937
- Sequence (P62937 whole entry): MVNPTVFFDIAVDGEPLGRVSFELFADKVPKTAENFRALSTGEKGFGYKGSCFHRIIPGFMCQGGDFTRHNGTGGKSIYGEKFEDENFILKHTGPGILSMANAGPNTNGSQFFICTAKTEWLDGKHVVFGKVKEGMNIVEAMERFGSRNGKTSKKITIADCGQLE
- Run Description: Binding affinity to CM5 chip-immobilized PPIA (unknown origin) assessed as dissociation constant by SPR analysis
Readout Name: pKd
One number for each entry, as −log10 of the molar value.

Exercise: Query (compound): C=C(C(=O)OC)N1c2nc(Cl)nc(Cl)c2N2C(c3ccccc3F)OC(C(=O)OCC)(C(=O)OCC)C12 (racemic) ; field requested: pKd
Key: 6.28

###

- System: HCT-116
- Run Description: Antiproliferative activity against human HCT-116 cells assessed as inhibition of cell viability incubated for 48 hrs by CCK8 assay
- Type: functional, cell-based
- Stated Conditions: HCT-116, 48 h
Readout Name: IC50 (µM)
Give bare numbers, in µM.

Examples from the recorded data:
CCOC(=O)/C=C/N1c2nc(Cl)nc(Cl)c2N2C(c3ccccc3)OC(CO)C12 (racemic) | 11.4
C=C(C(=O)OC)N1c2nc(Cl)nc(Cl)c2N2[C@H](c3ccccc3F)OC(C(=O)OCC)(C(=O)OCC)[C@@H]12 | 0.65
CCOC(=O)/C=C/N1c2nc(Cl)nc(Cl)c2N2C(c3ccccc3F)OC(C(=O)OCC)(C(=O)OCC)C12 (racemic) | 2.19

I'm hoping you can list IC50 for every molecule here, please.
1. CCOC(=O)/C=C/N1c2nc(Cl)nc(Cl)c2N2C(c3ccc(Cl)c(Cl)c3)OC(C(=O)OCC)(C(=O)OCC)C12 (racemic)
2. CCOC(=O)/C=C/N1c2nc(Cl)nc(Cl)c2N2C(c3ccccc3)OC(C(=O)OCC)(C(=O)OCC)C12 (racemic)
3. CCOC(=O)/C=C/N1c2nc(Cl)nc(Cl)c2N2C(c3cccc(C(F)(F)F)c3)OC(C(=O)OCC)(C(=O)OCC)C12 (racemic)
4. CCOC(=O)/C=C/N1c2nc(Cl)nc(Cl)c2N2C(c3cc(OC)c(OC)c(OC)c3)OC(C(=O)OCC)(C(=O)OCC)C12 (racemic)
5. CCOC(=O)/C=C/N1c2nc(Cl)nc(Cl)c2N2C(c3ccc(C)cc3)OC(C(=O)OCC)(C(=O)OCC)C12 (racemic)
6. C=C(C(=O)OC)N1c2nc(Cl)nc(Cl)c2N2[C@@H](c3ccccc3F)OC(C(=O)OCC)(C(=O)OCC)[C@H]12
7. CCOC(=O)/C=C/N1c2nc(Cl)nc(Cl)c2N2C(c3cccc(C)c3)OC(C(=O)OCC)(C(=O)OCC)C12 (racemic)

Key:
1. 10.9
2. 13.8
3. 3.56
4. 14
5. 20.7
6. 0.24
7. 10.4

Exercise: Could you tell me which IC50 is on file for C=C(C(=O)OC)N1c2nc(Cl)nc(Cl)c2N2C(c3ccccc3F)OC(C(=O)OCC)(C(=O)OCC)C12 (racemic) ?
Key: 0.51

###

- System: HeLa
- Run Description: Antiproliferative activity against human HeLa cells assessed as inhibition of cell viability incubated for 48 hrs by CCK8 assay
- Format: functional, cell-based
Give measured pIC50 for each item. Keep answers brief.
Numbers only, as −log10 of the molar value.

Previously resolved entries follow.
CCOC(=O)C1(C(=O)OCC)OC(c2ccccc2)N2c3c(Cl)nc(Cl)nc3N(/C=C/C(=O)OC)C21 (racemic) | 4.95
CCOC(=O)/C=C/N1c2nc(Cl)nc(Cl)c2N2C(c3cccc(Cl)c3)OC(C(=O)OCC)(C(=O)OCC)C12 (racemic) | 4.78

Please report pIC50 for every entry that follows.
1. CCOC(=O)/C=C/N1c2nc(Cl)nc(Cl)c2N2C(c3cccc(C)c3)OC(C(=O)OCC)(C(=O)OCC)C12 (racemic)
2. CCOC(=O)/C=C/N1c2nc(Cl)nc(Cl)c2N2C(c3ccc([N+](=O)[O-])cc3)OC(C(=O)OCC)(C(=O)OCC)C12 (racemic)
3. CCOC(=O)/C=C/N1c2nc(Cl)nc(Cl)c2N2C(c3ccccc3)OC(C(=O)OC)(C(=O)OC)C12 (racemic)
4. CCOC(=O)/C=C/N1c2nc(Cl)nc(Cl)c2N2C(c3ccc(Cl)c(Cl)c3)OC(C(=O)OCC)(C(=O)OCC)C12 (racemic)
5. C=C(C(=O)OCC)N1c2nc(Cl)nc(Cl)c2N2C(c3ccccc3)OC(C(=O)OCC)(C(=O)OCC)C12 (racemic)

Key:
4.58
5.01
4.90
4.79
5.76

Look at each compound and report its pIC50.
1. CCOC(=O)/C=C/N1c2nc(Cl)nc(Cl)c2N2C(c3ccccc3C(F)(F)F)OC(C(=O)OCC)(C(=O)OCC)C12 (racemic)
2. CCOC(=O)/C=C/N1c2nc(F)nc(Cl)c2N2C(c3ccccc3)OC(C(=O)OCC)(C(=O)OCC)C12 (racemic)
3. CCOC(=O)/C=C/N1c2nc(Cl)nc(Cl)c2N2C(c3cccc([N+](=O)[O-])c3)OC(C(=O)OCC)(C(=O)OCC)C12 (racemic)

Key:
1: 5.31; 2: 4.74; 3: 5.19

Exercise: Form field: pIC50 recorded for C=C(C(=O)OC)N1c2nc(Cl)nc(Cl)c2N2C(c3ccccc3Br)OC(C(=O)OCC)(C(=O)OCC)C12 (racemic) with HeLa (enter value)
Key: 5.67
